Data provenance: patent US20210340238A1

# measured target: Matrix-associated proTGFβ1
# protocol: MSD-SET binding, ECM average of hLTBP1 and hLTBP3 complexes
# Set-up: species or system human
# condition parameters: average KD of (B) and (C), read-out: (D) ECM AVRG
readout type: pKd
Give only the number. pKd is defined as minus log10 of concentration in molar units.

Look up pKd: Ab19: monoclonal antibody binding proTGFβ1 complexes; VH SEQ ID NO: 234, VL SEQ ID NO: 15 (antibody, V domains shown) VH: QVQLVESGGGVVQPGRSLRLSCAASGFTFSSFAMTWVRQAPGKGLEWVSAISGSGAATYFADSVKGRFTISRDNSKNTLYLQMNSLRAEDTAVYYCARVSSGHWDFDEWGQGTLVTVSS VL: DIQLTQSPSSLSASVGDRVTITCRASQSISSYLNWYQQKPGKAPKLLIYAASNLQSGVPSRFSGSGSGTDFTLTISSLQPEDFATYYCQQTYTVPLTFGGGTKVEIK
8.55
